Reference source for all entries: PubChem BioAssay (NCI)

growth reference
- Tested on: MALME-3M melanoma
- MEASUREMENT NOTES: NCI-60 one-dose screen, 48 h (100 = growth as untreated, 0 = no growth, -100 = all killed)
- MEASUREMENT PARAMETERS: 10 µM unless noted
About 83,000 compounds went through this panel and 20% of them were active in at least one assay; those are over-represented in the sample as a whole.
All answers are understood in %, so give the number only.

Completed entries (count: 4):
COc1ccc(-c2ccnc(SCc3cc4ccccc4[nH]c3=O)n2)cc1 :: 65.9
Cc1ccc(C(=O)CSc2nc3ccc(C)cc3c(=O)n2-c2ccc(F)cc2)cc1 :: 79.6
COc1cc2oc(-c3cccc(NC(=O)[C@H](Cc4ccccc4)NC(=O)OC(C)(C)C)c3)cc(=O)c2c(OC)c1OC :: 35
COC1=C[C@]23CCC(=O)N2CCc2cc4c(cc2[C@@H]3[C@@H]1OC(=O)[C@H](C)O)OCO4 :: -28.6

Let me know recorded growth for O=C(COc1ccc(NC(=O)Nc2ccc(Cl)c(Cl)c2)cc1)N=Nc1c(O)[nH]c2ccc([N+](=O)[O-])cc12 , thanks. 77.9

Return value of growth for input CN(C)c1ccnc(CNCCSC2(c3ccccc3)c3ccccc3C=Cc3ccccc32)c1 , no commentary. -93.4
